Tested on: P. berghei ookinete development
Assay: microbe, parasite or virus in culture
Details: Plasmodium berghei, read-out: % inhibition, Replicate A
Provide the recorded inhibition at 1 µM for the entries that follow.
Write the number in % without appending the unit.

Under P. berghei ookinete development: inhibition at 1 µM value of CCCCCCCc1c(C)nc2cc(OC)ccc2c1O [TCMDC-137173, endochin] ?
115

Same question, "NC(=O)c1ccccc1Nc1nc(Nc2cccc(N3CCN(CCO)CC3)c2)ncc1Cl" this time
106

Same question, "Cn1c(Sc2ncnc3sccc23)nc2ccccc21" this time
109

Same question, COc1ccc2ncc(F)c(CCN3CCC(NC(=O)c4ccc5c(n4)NC(=O)CS5)C(O)C3)c2n1 (centres unmarked) this time
99.8

Same question, CCC1CN2CCc3cc(OC)c(OC)cc3C2CC1CC1NCCc2cc(OC)c(OC)cc21 (centres unmarked) this time
118

All figures here come from paper PMC6753678.
